Target: T1, PSMA Fab
T1 construct: also called 006 PSMA Fab; anti-PSMA Fab
Assay: competition ELISA; peptide 0-100 µM with 0.3 nM PSMA Fab on plate-captured biotinylated PSMA
Where no end group is shown, it is not given here.
Overview of reported IC50 across a group of binders:
Give your result in µM as a bare value.

As a guide, the following entries are already answered.
IAALCQPNWMCAGF (Alanine-scan variant V3A of Peptide-180) [Peptide-252]	5.7
IAVLCQPNWMCAGF (cysteine pairing not given here; also: biotinylated, site not given here, PSMA mask peptide) [Peptide-180]	5.23
IAVLCQPAWMCAGF (Alanine-scan variant N8A of Peptide-180) [Peptide-256]	2.16

Now examine the next entry.
## Task Determine its reported IC50: IAVLCAPNWMCAGF (Alanine-scan variant Q6A of Peptide-180) [Peptide-254]
## Result 15.7
